In this section we review reported IC50 values for a set of molecules.
system: RAW264.7; experiment: Antiinflammatory activity against mouse RAW264.7 cells assessed as reduction of LPS-induced NO production after 24 hrs; assay type: functional, cell-based; settings: RAW264.7, 24 h

Below: 2 molecules and their reported IC50.
[[record]]
molecule = "C=C(C)C(O)C(OCC)c1c(OC)ccc2ccc(=O)oc12 (configuration not stated)"
target_of_assay = "RAW264.7"
quantity_kind = "IC50"
reading = "43.3 µM"

[[record]]
molecule = "COc1ccc2ccc(=O)oc2c1 [HERNIARIN]"
target_of_assay = "RAW264.7"
quantity_kind = "IC50"
reading = "12.4 µM"


Fill in the recorded IC50 for this molecule, with RAW264.7 as test system: `COc1cc(OC)c2ccc(=O)oc2c1/C=C/C(C)C`
20.5 µM

Fill in the recorded IC50 for this molecule, with RAW264.7 as test system: `COc1cc(OC)c2ccc(=O)oc2c1C[C@@H](O)C(C)(C)O`
12.4 µM

Fill in the recorded IC50 for this molecule, with RAW264.7 as test system: `COc1cc2cc(C)ccc2c2oc(=O)ccc12`
12.4 µM

====

test system: RAW264.7; experiment: Antiinflammatory activity against mouse RAW264.7 cells assessed as reduction of LPS-induced NO production after 24 hrs; format: functional, cell-based; conditions: RAW264.7, 24 h
In this section we review reported pIC50 values for a set of compounds.
pIC50 is a log-scale quantity: -log10 of the concentration expressed in molar.

Name the reported pIC50 value associated with the compound `C=C(C)/C=C\c1c(OC)cc(OC)c2ccc(=O)oc12`
4.84

Name the reported pIC50 value associated with the compound CCOC(C)(C)C(O)Cc1c(OC)cc(OC)c2ccc(=O)oc12 (configuration not stated)
4.50

Name the reported pIC50 value associated with the compound `COc1c(OC)c(/C=C/C(C)(C)O)c2oc(=O)ccc2c1OC`
4.91

Name the reported pIC50 value associated with the compound `COc1cc(OC)c2ccc(=O)oc2c1C/C=C(\C)C=O`
4.55

Name the reported pIC50 value associated with the compound `COc1cc(OC)c2ccc(=O)oc2c1CC(C)(C)C=O`
4.91

Name the reported pIC50 value associated with the compound `CC(C)=CCc1cc2ccc(=O)oc2c2c1OC(C)(C)C=C2`
4.91

Name the reported pIC50 value associated with the compound `C=C(C)[C@H](Cc1c(OC)ccc2ccc(=O)oc12)OO`
4.91

Name the reported pIC50 value associated with the compound `COc1c(OC)c(CC=C(C)C)c2oc(=O)ccc2c1OC`
4.91

Name the reported pIC50 value associated with the compound `COc1cc(OC)c2ccc(=O)oc2c1C(=O)C(=O)C(C)C`
4.91

====

tested on: RAW264.7; test: Antiinflammatory activity against mouse RAW264.7 cells assessed as reduction of LPS-induced NO production after 24 hrs; type: functional, cell-based; settings: RAW264.7, 24 h
# note: boundary value 10 µM maps to condition not met; IC50 below it maps to condition met

# example entries with known answers
[[record]]
molecule = "COc1cc(OC)c2ccc(=O)oc2c1CC(C)(C)C(=O)O"
group = "condition not met"

[[record]]
molecule = "COc1cc(OC)c2ccc(=O)oc2c1CC(=O)C(C)C"
group = "condition not met"

[[record]]
molecule = "COc1cc2c(c3oc(=O)ccc13)C=CC(C)(C)O2"
group = "condition not met"

[[record]]
molecule = "COc1ccc2ccc(=O)oc2c1C(C=O)=C(C)C [MURRALONGIN]"
group = "condition not met"


Please indicate whether the reported IC50 of `C=C(C)[C@H](O)[C@H](OCC)c1c(OC)ccc2ccc(=O)oc12` is strictly below 10 µM.
condition not met

Please indicate whether the reported IC50 of COc1ccc2ccc(=O)oc2c1C(O)C(=O)C(C)C (stereo not drawn) is strictly below 10 µM.
condition not met

Please indicate whether the reported IC50 of `C=C(C)/C=C/c1c(OC)cc(OC)c2ccc(=O)oc12` is strictly below 10 µM.
condition not met

Please indicate whether the reported IC50 of COc1c(OC)c(CC(O)C(C)(C)O)c2oc(=O)ccc2c1OC (stereo not drawn) is strictly below 10 µM.
condition not met

Please indicate whether the reported IC50 of `C=C(C)Cc1c(OC)cc(OC)c2ccc(=O)oc12` is strictly below 10 µM.
condition not met

Please indicate whether the reported IC50 of COc1ccc2ccc(=O)oc2c1CC=C(C)C [OSTHOLE] is strictly below 10 µM.
condition not met
